Target of assay: Clostridium difficile toxin B, soluble full-length (TechLab) (Clostridium difficile, UniProt P18177 2-2366)
Sequence (P18177 2-2366 limits assumed): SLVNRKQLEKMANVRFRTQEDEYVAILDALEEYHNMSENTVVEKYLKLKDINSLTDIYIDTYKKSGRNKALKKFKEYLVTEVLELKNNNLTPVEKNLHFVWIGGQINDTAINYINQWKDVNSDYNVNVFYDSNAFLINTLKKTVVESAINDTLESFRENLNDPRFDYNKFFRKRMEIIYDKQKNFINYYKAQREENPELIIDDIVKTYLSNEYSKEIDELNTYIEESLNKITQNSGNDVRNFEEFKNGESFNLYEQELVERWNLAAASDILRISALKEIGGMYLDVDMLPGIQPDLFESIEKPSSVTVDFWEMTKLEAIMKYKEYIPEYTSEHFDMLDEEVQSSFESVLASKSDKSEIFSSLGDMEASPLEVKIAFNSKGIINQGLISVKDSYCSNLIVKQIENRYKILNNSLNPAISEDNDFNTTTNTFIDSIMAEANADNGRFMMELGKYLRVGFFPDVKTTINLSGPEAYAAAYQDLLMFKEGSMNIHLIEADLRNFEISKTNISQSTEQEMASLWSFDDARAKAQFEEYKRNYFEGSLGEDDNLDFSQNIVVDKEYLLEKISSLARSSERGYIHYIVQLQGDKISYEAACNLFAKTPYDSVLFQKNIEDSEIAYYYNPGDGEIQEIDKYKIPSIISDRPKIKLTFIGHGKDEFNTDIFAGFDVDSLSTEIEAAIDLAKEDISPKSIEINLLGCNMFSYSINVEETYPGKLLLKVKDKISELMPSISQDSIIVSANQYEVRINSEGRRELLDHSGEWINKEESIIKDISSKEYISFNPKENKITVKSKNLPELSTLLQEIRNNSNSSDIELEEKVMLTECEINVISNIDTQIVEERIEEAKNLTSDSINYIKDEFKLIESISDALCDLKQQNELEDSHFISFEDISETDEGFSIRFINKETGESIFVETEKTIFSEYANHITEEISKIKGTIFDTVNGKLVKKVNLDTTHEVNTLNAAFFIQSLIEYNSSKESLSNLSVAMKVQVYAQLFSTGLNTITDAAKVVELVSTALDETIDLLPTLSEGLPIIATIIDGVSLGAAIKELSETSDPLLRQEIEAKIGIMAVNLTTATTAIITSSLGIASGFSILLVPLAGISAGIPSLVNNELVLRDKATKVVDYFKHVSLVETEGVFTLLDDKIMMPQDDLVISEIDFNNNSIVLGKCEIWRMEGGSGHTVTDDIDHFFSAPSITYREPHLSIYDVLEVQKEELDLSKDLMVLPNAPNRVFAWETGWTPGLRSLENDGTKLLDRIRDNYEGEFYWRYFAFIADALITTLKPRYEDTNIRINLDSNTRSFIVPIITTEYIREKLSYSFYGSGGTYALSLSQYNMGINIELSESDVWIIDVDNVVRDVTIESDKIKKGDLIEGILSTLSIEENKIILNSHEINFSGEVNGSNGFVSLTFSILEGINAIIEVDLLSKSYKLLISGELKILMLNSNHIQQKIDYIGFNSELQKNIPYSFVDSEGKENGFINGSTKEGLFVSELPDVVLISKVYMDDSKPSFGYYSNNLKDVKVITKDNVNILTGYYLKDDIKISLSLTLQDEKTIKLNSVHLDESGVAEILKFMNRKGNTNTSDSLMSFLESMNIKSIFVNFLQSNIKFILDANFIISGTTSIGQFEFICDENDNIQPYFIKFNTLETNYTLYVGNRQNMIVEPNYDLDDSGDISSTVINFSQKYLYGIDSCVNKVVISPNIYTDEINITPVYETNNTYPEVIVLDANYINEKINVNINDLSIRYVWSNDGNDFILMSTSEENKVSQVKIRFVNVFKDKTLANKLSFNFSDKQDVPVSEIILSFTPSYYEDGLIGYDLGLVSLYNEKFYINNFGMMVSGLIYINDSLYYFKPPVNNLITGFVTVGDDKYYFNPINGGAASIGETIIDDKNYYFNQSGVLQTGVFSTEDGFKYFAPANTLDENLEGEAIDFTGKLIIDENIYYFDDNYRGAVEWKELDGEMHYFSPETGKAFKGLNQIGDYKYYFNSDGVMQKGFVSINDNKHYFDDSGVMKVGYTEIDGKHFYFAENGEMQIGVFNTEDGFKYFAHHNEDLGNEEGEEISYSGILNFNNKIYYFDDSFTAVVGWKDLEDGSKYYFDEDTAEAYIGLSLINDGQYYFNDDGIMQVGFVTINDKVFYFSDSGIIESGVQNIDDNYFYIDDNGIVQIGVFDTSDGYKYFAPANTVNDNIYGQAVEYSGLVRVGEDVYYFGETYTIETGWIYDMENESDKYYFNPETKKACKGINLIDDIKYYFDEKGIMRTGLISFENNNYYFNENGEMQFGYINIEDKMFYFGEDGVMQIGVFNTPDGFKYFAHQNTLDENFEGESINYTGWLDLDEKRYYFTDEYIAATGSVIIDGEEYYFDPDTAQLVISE
Assay name: cell-based or functional assay
# IC50, Vero cell viability (neutralization), Trial 1, 0.1 pM Toxin B annotations
Reply numerically in pM, unit not repeated.

Reference set (5 entries):
Binder	Number
H1H3344P (antibody, V domains shown) VH: EVQLVESGGGLVQPGGSLRLSCAASGFTFKIYAMSWVRQGPGKGLEWVSAISGNGDKTYYTDSVQGRFTISRDNSKNTLFLQMNSLRAEDTAIYYCARGWELLNYWGQGTLVTVSS VL: DIQMTQSPSSLSASIGDRVTITCRASQDISNSLAWFQQKPGKAPKSLIYAASSLQSGVPSRFSGSGSGTDFTLTISSLQPEDFATYYCQQYIPFPPTFGPGTKVDIKR	580
H1H3339P (antibody, V domains shown) VH: EVQLVESGGGLVQPGGSLRLSCAVSGFTFSIYAMSWVRQAPGKGLEWVSAISGSGDKTYYADSVKGRFTISRDNSKNTLYLQMNSLRAEDTAVFYCARGWELLNYWGQGTLVTVSS VL: DIQMTQSPSSLSASVGDRVTITCRASLDISNFLAWFQQKPGTAPKSLIYSASSLRTGVPSKFSGSGSGTDFTLTISSLQPEDFATYYCQQYSSYPPTFGPGTKVDIKR	480
H1H3347P (antibody, V domains shown) VH: EVQLVESGGGLVQPGGSLRLSCVASGFTFTSYAMSWVRQAPGRGLQWVSAIGGSGDSIYYADSVKGRFTISRDNSKNTLYLQMDSLRAEDTAVYYCARGWELLNYWGQGTLVTVSS VL: DIQMTQSPSSLSASVGDRVTITCRASQDIGNFLAWFQQKPGKAPKSLIYAASSLKSGVPSKISGSGSGTDFTLTINSLQPEDFATYYCQQYNIYPPTFGPGTKVDIKR	130
H1H3337P (antibody, V domains shown) VH: EVQLVESGGGLVQPGGSLRLSCAASGFTFSIYAMSWVRQAPGKGLEWVSGISGSGGRTYYADSVKGRFTISRDNSKNTLYLQMNSLRVEDTAVYYCARGWELLNFWGQGTLVTVSS VL: DIQMTQSPSSLSASVGDRVTITCRASQGISNNLAWFQQKPGKAPKSLIYAASSLKSGVPSKFSGSGSGTDFTLTINSLQPEDFATYYCHQYNSYPPTFGPGTKVDIKR	1730
H1H3343P (antibody, V domains shown) VH: EVQLVESGGGLVQPGGSLRLSCVASGFNFRIYAMSWVRQAPGKGPEWVSGISGSGDNTYYAASVKGRFTVSRDNSKNTLYLQMTSLRAEDTAVFYCARGWELLNYWGQGTLVTVSS VL: DIQMTQSPSSLSASVGDRVTITCRASLDIGNFLAWFQQKPGTAPKSLIYSASSLQTGVPSKFSGSGSGTDFTLTISSLQPEDFATYYCQQYNSYPPTFGPGTKVDIKR	280

Any idea what IC50, Vero cell viability (neutralization), Trial 1, 0.1 pM Toxin B was measured for H1H3335P (antibody, V domains shown) VH: EVQLVESGGGLVRPGGSLRLSCAASGFTFRIYAMSWVRQAPGKGLEWVSGISGSGDNTYYTDSVKGRFIISRDNSKSTLYLQMNSLRAEDTAVYYCARGWELLNYWGQGTLVTVSS VL: DIQMTQSPSSLSAFVGDRVTITCRASQDISNHLAWFQQKPGKVPKSLIYAASSLQSGVPSKFSGSGSGTDFTLTISSLQPEDFATYYCQQYGLYPPTFGPGTKVDIKR ?
730
